Tested on: croton oil-induced granuloma
procedureDetails: Test for croton oil-induced granuloma (air pouch exudate and thymus weight)
Type: in vivo, rat
particulars: male Wistar rats, dose 0.1 mg/rat into pouch, 7 days, vs control group
quantityName: Rate of thymus atrophy (systemic side effects) (%)
Numbers only, in %.

Worked examples follow.
compound	readoutValue
C[C@]12C=CC(=O)C=C1CC[C@@H]1[C@@H]2[C@@H](O)C[C@@]2(C)[C@H]1C[C@H]1O[C@@H](C3CCCCC3)O[C@]12C(=O)CO [desCIC, des-ciclesonide, reference compound]	22.4
CCCC1O[C@@H]2C[C@H]3[C@@H]4CCC5=CC(=O)C=C[C@]5(C)[C@H]4[C@@H](O)C[C@]3(C)[C@]2(C(=O)CO)O1 (some centres unmarked) [Budesonide, budesonide, reference compound]	74.5
CCC(=O)OCC1OC(OCC(=O)C23OC(C4CCCCC4)OC2CC2C4CCC5=CC(=O)C=CC5(C)C4C(O)CC23C)C(OC(=O)CC)C(OC(=O)CC)C1OC(=O)CC (centres unmarked) [Compound 4]	0.0
CC(=O)OCC1OC(OCC(=O)C23OC(C4CCCCC4)OC2CC2C4CCC5=CC(=O)C=CC5(C)C4C(O)CC23C)C(OC(C)=O)C(OC(C)=O)C1OC(C)=O (centres unmarked) [Compound 3]	0.0
CC(=O)OC1C(C)OC(OCC(=O)C23OC(C4CCCCC4)OC2CC2C4CCC5=CC(=O)C=CC5(C)C4C(O)CC23C)C(OC(C)=O)C1OC(C)=O (centres unmarked) [Compound 10]	0.0
CCCC(=O)OCC1OC(OCC(=O)C23OC(C4CCCCC4)OC2CC2C4CCC5=CC(=O)C=CC5(C)C4C(O)CC23C)C(OC(=O)CCC)C(OC(=O)CCC)C1OC(=O)CCC (centres unmarked) [Compound 5]	0.0
CC12C=CC(=O)C=C1CCC1C2C(O)CC2(C)C1CC1OC(C3CCCCC3)OC12C(=O)COC1OC(COC(=O)c2ccco2)C(OC(=O)c2ccco2)C(OC(=O)c2ccco2)C1OC(=O)c1ccco1 (centres unmarked) [Compound 8]	0.0
CC(=O)NC1C(OCC(=O)C23OC(C4CCCCC4)OC2CC2C4CCC5=CC(=O)C=CC5(C)C4C(O)CC23C)OC(COC(C)=O)C(OC(C)=O)C1OC(C)=O (centres unmarked) [Compound 12]	17.7
CC(C)C(=O)OCC1OC(OCC(=O)C23OC(C4CCCCC4)OC2CC2C4CCC5=CC(=O)C=CC5(C)C4C(O)CC23C)C(OC(=O)C(C)C)C(OC(=O)C(C)C)C1OC(=O)C(C)C (centres unmarked) [Compound 6]	0.0
CC(C)C(=O)OCC(=O)[C@@]12O[C@H](C3CCCCC3)O[C@@H]1C[C@H]1[C@@H]3CCC4=CC(=O)C=C[C@]4(C)[C@H]3[C@@H](O)C[C@@]12C [Ciclesonide, ciclesonide, reference compound]	23.6

State the recorded Rate of thymus atrophy (systemic side effects) for every item in the following list.
1. CC(=O)OC1C(C)OC(OCC(=O)C23OC(C4CCCCC4)OC2CC2C4CCC5=CC(=O)C=CC5(C)C4C(O)CC23C)C(OC(C)=O)C1OC(C)=O (centres unmarked) [Compound 9]
2. CCCC1O[C@@H]2C[C@H]3[C@@H]4CCC5=CC(=O)C=C[C@]5(C)[C@H]4[C@@H](O)C[C@]3(C)[C@]2(C(=O)CO)O1 (stereo partly drawn) [Budesonide(R), reference compound]

[A]
1: 9.4; 2: 74.5

Below are 2 compounds. Give each one its Rate of thymus atrophy (systemic side effects).
1. CC(=O)NC1C(OCC(=O)C23OC(C4CCCCC4)OC2CC2C4CCC5=CC(=O)C=CC5(C)C4C(O)CC23C)OC(COC(C)=O)C(OC(C)=O)C1OC(C)=O (centres unmarked) [Compound 11]
2. CC12C=CC(=O)C=C1CCC1C2C(O)CC2(C)C1CC1OC(C3CCCCC3)OC12C(=O)COC1OC(COC=O)C(OC=O)C(OC=O)C1OC=O (centres unmarked) [Compound 7]

[A]
1: 10.8; 2: 5.8
